System: K562 cell line
protocol: Bioassay of viability in leukemic cell lines (DAPI, flow cytometry)
Type: cell-based, human
particulars: Homo sapiens, K562, 48 h

molecule: C=C(C)[C@@H]1CC[C@]2(C(=O)O)CC[C@]3(C)C(CCC4[C@@]5(C)CC[C@@H](OC(C)=O)[C@](C)(CO)C5CC[C@]43C)C12 (stereo partly drawn) [Compound T1Ac]
experimental system: K562 cell line
units symbol: µg/mL
result operator: >
IC50: 100

molecule: C=C(C)[C@@H]1CC[C@]2(C(=O)O)CC[C@]3(C)C(CCC4[C@@]5(C)CC[C@H]6OC(C)(C)OC[C@@]6(C)C5CC[C@]43C)C12 (stereo partly drawn) [Compound T2]
experimental system: K562 cell line
units symbol: µg/mL
result operator: >
IC50: 100

molecule: COc1cc([C@@H]2c3cc4c(cc3[C@@H](O[C@@H]3O[C@@H]5CO[C@@H](C)O[C@H]5[C@H](O)[C@H]3O)[C@H]3COC(=O)[C@H]23)OCO4)cc(OC)c1O [Etoposide, etoposide, reference compound]
experimental system: K562 cell line
units symbol: µg/mL
result operator: =
IC50: 14.7

molecule: C=C(C)[C@@H]1CC[C@]2(C(=O)OC)CC[C@]3(C)C(CCC4[C@@]5(C)CC[C@H]6OC(C)(C)OC[C@@]6(C)C5CC[C@]43C)C12 (stereo partly drawn) [Compound T2COOMe]
experimental system: K562 cell line
units symbol: µg/mL
result operator: >
IC50: 100

molecule: C=C(C)[C@@H]1CC[C@]2(C(=O)O)CC[C@]3(C)C(CCC4[C@@]5(C)CC[C@@H](O)[C@](C)(CO)C5CC[C@]43C)C12 (stereo partly drawn) [Compound T1, 3α,24-dihydroxylup-20(29)-en-28-oic acid]
experimental system: K562 cell line
units symbol: µg/mL
result operator: =
IC50: 100

molecule: C=C(C)[C@@H]1CC[C@]2(C(=O)O)CC[C@]3(C)C(CCC4[C@@]5(C)CC[C@@H](OC)[C@](C)(CO)C5CC[C@]43C)C12 (stereo partly drawn) [Compound T1m]
experimental system: K562 cell line
units symbol: µg/mL
result operator: =
IC50: 39.5
